Target: Voltage-dependent T-type calcium channel subunit alpha-1H (Homo sapiens);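 also: channel activity triggered by adding a high calcium stimulation buffer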
Sequence (O95180 whole entry): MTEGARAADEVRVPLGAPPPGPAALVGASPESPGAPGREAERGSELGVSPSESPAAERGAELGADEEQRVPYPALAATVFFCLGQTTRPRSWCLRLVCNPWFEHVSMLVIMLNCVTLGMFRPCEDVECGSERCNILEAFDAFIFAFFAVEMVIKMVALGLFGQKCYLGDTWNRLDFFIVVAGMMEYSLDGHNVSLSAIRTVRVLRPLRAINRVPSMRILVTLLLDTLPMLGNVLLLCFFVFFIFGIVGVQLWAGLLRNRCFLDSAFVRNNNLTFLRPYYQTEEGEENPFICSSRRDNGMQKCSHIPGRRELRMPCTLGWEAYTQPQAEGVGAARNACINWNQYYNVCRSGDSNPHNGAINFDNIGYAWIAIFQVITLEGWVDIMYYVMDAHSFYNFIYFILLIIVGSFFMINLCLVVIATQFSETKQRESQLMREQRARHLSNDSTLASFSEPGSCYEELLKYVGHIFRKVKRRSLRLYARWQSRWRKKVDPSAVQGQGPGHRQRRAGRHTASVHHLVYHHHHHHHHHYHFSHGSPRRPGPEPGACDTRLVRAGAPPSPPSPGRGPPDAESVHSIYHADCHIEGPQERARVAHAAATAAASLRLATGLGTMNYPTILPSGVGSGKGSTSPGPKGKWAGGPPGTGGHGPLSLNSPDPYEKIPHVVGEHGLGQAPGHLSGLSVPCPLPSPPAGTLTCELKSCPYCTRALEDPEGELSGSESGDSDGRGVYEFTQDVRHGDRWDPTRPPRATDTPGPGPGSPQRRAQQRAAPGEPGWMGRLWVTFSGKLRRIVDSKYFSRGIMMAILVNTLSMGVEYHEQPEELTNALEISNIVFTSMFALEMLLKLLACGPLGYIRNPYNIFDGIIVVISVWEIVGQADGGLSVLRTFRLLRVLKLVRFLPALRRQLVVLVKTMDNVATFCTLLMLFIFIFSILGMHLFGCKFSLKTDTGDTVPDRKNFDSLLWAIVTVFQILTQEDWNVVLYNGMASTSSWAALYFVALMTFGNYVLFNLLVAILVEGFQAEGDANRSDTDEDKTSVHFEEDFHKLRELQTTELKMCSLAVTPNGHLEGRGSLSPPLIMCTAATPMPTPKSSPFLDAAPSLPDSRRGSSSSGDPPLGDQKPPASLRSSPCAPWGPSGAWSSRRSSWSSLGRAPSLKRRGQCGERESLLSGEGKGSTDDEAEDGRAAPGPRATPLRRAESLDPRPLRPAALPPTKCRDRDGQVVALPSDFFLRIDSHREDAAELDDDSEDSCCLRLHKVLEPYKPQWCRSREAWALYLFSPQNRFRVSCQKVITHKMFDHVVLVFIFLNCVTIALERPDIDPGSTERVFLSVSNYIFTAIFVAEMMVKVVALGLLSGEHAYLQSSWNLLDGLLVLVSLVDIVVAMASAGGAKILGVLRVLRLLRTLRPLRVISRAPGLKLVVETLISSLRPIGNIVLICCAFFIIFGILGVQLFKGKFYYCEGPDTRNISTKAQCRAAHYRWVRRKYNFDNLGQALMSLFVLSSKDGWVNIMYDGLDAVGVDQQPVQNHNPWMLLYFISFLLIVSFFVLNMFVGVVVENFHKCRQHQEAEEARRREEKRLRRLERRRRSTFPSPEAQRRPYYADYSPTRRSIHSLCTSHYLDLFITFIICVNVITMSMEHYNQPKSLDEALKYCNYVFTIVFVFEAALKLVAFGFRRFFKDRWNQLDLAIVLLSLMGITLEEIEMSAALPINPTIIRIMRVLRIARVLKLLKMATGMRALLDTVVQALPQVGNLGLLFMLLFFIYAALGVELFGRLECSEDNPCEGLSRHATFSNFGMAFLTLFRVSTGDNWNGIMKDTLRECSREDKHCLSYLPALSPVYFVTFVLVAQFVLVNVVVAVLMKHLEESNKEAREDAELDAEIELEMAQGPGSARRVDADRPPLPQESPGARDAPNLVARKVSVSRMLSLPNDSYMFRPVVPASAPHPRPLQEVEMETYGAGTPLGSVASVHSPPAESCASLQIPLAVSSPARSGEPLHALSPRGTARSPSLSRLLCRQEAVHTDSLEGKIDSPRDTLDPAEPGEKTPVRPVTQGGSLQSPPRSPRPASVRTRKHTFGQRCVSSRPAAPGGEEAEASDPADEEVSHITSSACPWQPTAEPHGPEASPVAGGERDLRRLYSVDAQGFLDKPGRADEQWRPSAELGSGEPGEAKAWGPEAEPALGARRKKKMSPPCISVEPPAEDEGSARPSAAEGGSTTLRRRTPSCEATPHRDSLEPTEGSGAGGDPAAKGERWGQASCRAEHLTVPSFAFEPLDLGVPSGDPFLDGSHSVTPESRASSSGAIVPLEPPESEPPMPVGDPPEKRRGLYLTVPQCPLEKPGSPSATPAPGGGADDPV
Format: functional
The source made the active and inactive calls.
endpoint: EC50

Guide cases for EC50, answers given:
# chem-smiles, EC50
data = [
    ("Cc1ccc(S(=O)(=O)c2nc(-c3ccccc3)oc2NCc2cccnc2)cc1", "8.55 µM (active)"),
    ("O=C(NC1CCCCC1)N1CCS/C1=N\\c1ccccc1", "7.51 µM (active)"),
    ("O=C(Nc1ccccc1)c1nnn(Cc2ccccc2)c1NC(=O)C(F)(F)F", "4.59 µM (active)"),
]

Now consider the entry below.
Query block: // EC50 lookup, key: Cc1csc(NC(=O)c2sc3nc(-c4cccs4)ccc3c2N)n1
Result block: 6.54 µM (active)

###

Catalogue of IC50 values
Biological target: Induced myeloid leukemia cell differentiation protein Mcl-1 (Homo sapiens)
Sequence (Q07820 whole entry): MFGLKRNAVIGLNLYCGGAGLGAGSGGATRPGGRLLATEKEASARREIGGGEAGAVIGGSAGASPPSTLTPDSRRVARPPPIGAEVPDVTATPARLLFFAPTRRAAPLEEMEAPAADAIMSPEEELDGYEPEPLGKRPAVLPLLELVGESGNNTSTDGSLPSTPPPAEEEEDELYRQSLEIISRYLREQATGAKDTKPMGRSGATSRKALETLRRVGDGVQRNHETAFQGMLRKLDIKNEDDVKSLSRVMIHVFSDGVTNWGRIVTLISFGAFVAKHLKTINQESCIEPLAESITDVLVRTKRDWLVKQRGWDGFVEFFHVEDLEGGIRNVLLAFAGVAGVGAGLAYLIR
Assay type: functional
Active and inactive are the calls of the source.

# compound, IC50
measured = [
    ("O=C(C1=C[C@@H](c2ccc(C(F)(F)F)cc2)C[C@@H](OCc2ccc(CO)cc2)O1)N1CCN(Cc2ccccc2)CC1", "1.48 µM (not active)"),
    ("COc1ccc(NC(=O)c2ccccc2N(Cc2ccccc2)S(C)(=O)=O)cc1", "40.6 µM (not active)"),
    ("O=C(COC(=O)c1ccc(NS(=O)(=O)c2cccs2)cc1)NCc1ccco1", "3.09 µM (active)"),
]

Query block: Suppose we examine the compound Cc1c(O)cc2c(c1O)C(=O)CC(c1ccc(O)cc1)O2 (configuration not stated) ; what IC50 value has been reported?
Result block: 3.94 µM (active)

Query block: Record request: IC50 value, item Cc1cc2c(C(C)C)c(O)c(O)c(C=O)c2c(O)c1-c1c(C)cc2c(C(C)C)c(O)c(O)c(C=O)c2c1O
Result block: 1.36 µM (active)

Query block: Recorded IC50 of COc1cc(C2Nc3cccc4cccc(c34)N2)cc(OC)c1OC(C)=O , please.
Result block: 2.8 µM (active)

Query block: Entry N#C/C(=C\c1ccc(C(=O)O)cc1)c1nc(O)c2c3c(sc2n1)CCCC3 : reported IC50 = ?
Result block: 3.52 µM (active)

###

Target: Eukaryotic translation initiation factor 4E (Mus musculus)
Sequence (P63073 whole entry): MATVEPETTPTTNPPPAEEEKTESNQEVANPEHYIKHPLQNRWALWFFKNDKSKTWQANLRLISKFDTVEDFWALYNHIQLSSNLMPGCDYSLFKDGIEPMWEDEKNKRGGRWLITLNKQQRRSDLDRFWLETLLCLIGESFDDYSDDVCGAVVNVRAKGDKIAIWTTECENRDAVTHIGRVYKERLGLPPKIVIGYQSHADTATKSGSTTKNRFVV
Assay: blockers of eIF4G binding by eIF4E – biochemical, TR-FRET, dose response (AID 855);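 also: potency for disrupting eIF4E binding to eIF4GI seen as loss of FRET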
Type: functional
Calls of active or inactive are those of the source. How the calls were made is not given here.
Entry note: the call must match one of true (active), false (inactive)

Solved cases below.
# chem-smiles, classification
records = [
    ("COc1cc2c(cc1OC)-c1cc(NCc3ccccn3)nc(=O)n1CC2", "true"),
    ("COc1cc(/C=N/NC(=O)C2c3ccccc3Oc3ccccc32)ccc1O", "false"),
    ("O=C(CCS(=O)(=O)c1cccs1)N1CCCC1", "false"),
]

Switching to the query record.
Query block: Please indicate how the test categorized CC(C)c1ccc(C(=O)NCc2ccc(Cl)cc2)cc1 .
Result block: false

###

Biological target: Heat shock protein HSP 90-alpha (Homo sapiens)
Assay type: functional, organism-based
Active and inactive are the calls of the source.
endpoint: AC50

Worked examples follow.
# chem-smiles, target-or-system, AC50
measured = [
    ("COc1ccccc1N=Nc1ccc(O)c2ncccc12", "Heat shock protein HSP 90-alpha (Homo sapiens)", "3.68 µM (active)"),
    ("OC(Cn1cncn1)(c1ccccc1)c1ccccc1", "Heat shock protein HSP 90-alpha (Homo sapiens)", "1.43 µM (active)"),
    ("Clc1ccc2[nH]c3c(c2c1)CCc1c[nH]nc1-3", "Heat shock protein HSP 90-alpha (Homo sapiens)", "7.8 µM (active)"),
    ("Clc1ccc(/N=c2\\ssnc2Cl)nc1", "Heat shock protein HSP 90-alpha (Homo sapiens)", "1.73 µM (active)"),
    ("Nc1cc2c(cc1[N+](=O)[O-])-c1ccccc1C2=NO", "Heat shock protein HSP 90-alpha (Homo sapiens)", "8.8 µM (active)"),
]

Alright, here's another compound for you.
Query block: Would you kindly share the measured AC50 for O=C(N/N=C/c1ccc(O)c2ncccc12)c1cccc(Br)c1 ?
Result block: 3.83 µM (active)
